# assay protocol: Drug metabolism assessed as photolysis by measuring parent compound at 4.26 mM using MeCN and Water (1:3) as solvent system measured upon irradiation with 8-Watt UV365nm light after 75 mins by HPLC analysis
# Type: physicochemical
# test parameters: MeCN and water (1:3) solvent system, read-out: Drug metabolism
measured attribute: remaining at 1.25 h, 4260 µM

Exam item: Return reported remaining at 1.25 h, 4260 µM; argument: COc1cc(C(C)ONC(=O)c2ccc(-c3cccc(NS(C)(=O)=O)c3)cc2)c([N+](=O)[O-])cc1OCCCC(=O)O (stereo unspecified)
Marked response: 2.4%

----------
# assay protocol: Drug metabolism assessed as photolysis by measuring parent compound at 4.26 mM using MeCN and Water (1:3) as solvent system measured upon irradiation with 8-Watt UV365nm light after 90 mins by HPLC analysis
# Format: physicochemical
# test parameters: MeCN and water (1:3) solvent system, read-out: Drug metabolism
measured attribute: remaining at 1.5 h, 4260 µM (%)
Numbers only, in %.

Exam item: Return reported remaining at 1.5 h, 4260 µM; argument: COc1cc(C(C)ONC(=O)c2ccc(-c3cccc(NS(C)(=O)=O)c3)cc2)c([N+](=O)[O-])cc1OCCCC(=O)O (stereo unspecified)
Marked response: 0.7

----------
# assay protocol: Drug metabolism assessed as photolysis by measuring parent compound at 4.26 mM using MeCN and Water (1:3) as solvent system measured upon irradiation with 8-Watt UV365nm light after 60 mins by HPLC analysis
# Type: physicochemical
# test parameters: MeCN and water (1:3) solvent system, read-out: Drug metabolism
measured attribute: remaining at 1 h, 4260 µM (%)
Answers are plain numbers, in %.

Exam item: Return reported remaining at 1 h, 4260 µM; argument: COc1cc(C(C)ONC(=O)c2ccc(-c3cccc(NS(C)(=O)=O)c3)cc2)c([N+](=O)[O-])cc1OCCCC(=O)O (stereo unspecified)
Marked response: 8.4

----------
# assay protocol: Drug metabolism assessed as photolysis by measuring parent compound at 85 uM using DMSO, EtOH and water (4:4:92) as solvent system measured upon irradiation with 100mW UV365nm light after 6 mins by HPLC analysis
# Format: physicochemical
# test parameters: EtOH and water (4:4:92) solvent system, read-out: Drug metabolism
measured attribute: remaining at 0.1 h, 85 µM (%)
Answers are plain numbers, in %.

Exam item: Return reported remaining at 0.1 h, 85 µM; argument: COc1cc(C(C)ONC(=O)c2ccc(-c3cccc(NS(C)(=O)=O)c3)cc2)c([N+](=O)[O-])cc1OCCCC(=O)O (stereo unspecified)
Marked response: 8.2

----------
# assay protocol: Drug metabolism assessed as photolysis by measuring parent compound at 4.26 mM using MeCN and Water (1:3) as solvent system measured upon irradiation with 8-Watt UV365nm light after 30 mins by HPLC analysis
# Type: physicochemical
# test parameters: MeCN and water (1:3) solvent system, read-out: Drug metabolism
measured attribute: remaining at 0.5 h, 4260 µM (%)
Answers are plain numbers, in %.

Exam item: Return reported remaining at 0.5 h, 4260 µM; argument: COc1cc(C(C)ONC(=O)c2ccc(-c3cccc(NS(C)(=O)=O)c3)cc2)c([N+](=O)[O-])cc1OCCCC(=O)O (stereo unspecified)
Marked response: 53.3

----------
# assay protocol: Drug metabolism assessed as photolysis by measuring parent compound at 4.26 mM using MeCN and Water (1:3) as solvent system measured upon irradiation with 8-Watt UV365nm light after 45 mins by HPLC analysis
# Assay type: physicochemical
# test parameters: MeCN and water (1:3) solvent system, read-out: Drug metabolism
measured attribute: remaining at 0.75 h, 4260 µM (%)
Answers are plain numbers, in %.

Exam item: Return reported remaining at 0.75 h, 4260 µM; argument: COc1cc(C(C)ONC(=O)c2ccc(-c3cccc(NS(C)(=O)=O)c3)cc2)c([N+](=O)[O-])cc1OCCCC(=O)O (stereo unspecified)
Marked response: 18
